Listing of entries alongside the reported log10 IC50.
Target: Orexin/Hypocretin receptor type 1 (Homo sapiens)
Sequence (O43613 whole entry): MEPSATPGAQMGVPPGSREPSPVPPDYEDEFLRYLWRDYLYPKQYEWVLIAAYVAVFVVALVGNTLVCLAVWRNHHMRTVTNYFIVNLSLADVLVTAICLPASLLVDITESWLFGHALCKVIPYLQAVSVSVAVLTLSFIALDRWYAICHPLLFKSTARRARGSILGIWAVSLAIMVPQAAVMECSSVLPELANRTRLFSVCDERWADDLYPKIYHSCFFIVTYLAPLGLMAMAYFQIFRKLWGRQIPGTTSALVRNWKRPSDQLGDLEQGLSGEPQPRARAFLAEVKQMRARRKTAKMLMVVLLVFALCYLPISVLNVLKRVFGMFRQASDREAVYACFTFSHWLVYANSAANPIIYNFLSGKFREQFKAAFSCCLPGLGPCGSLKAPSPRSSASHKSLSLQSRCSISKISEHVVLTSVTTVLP
Assay: Antagonist activity at human orexin 1 receptor expressed in CHO cells assessed as inhibition of orexin-A-induced calcium mobilization by FLIPR assay
Scale: log10; quantity: IC50; unit before log: µM

Example cases with answers are listed next.
COc1cccc(OC)c1C1CCCC(=O)N1Cc1ccc(OC(F)(F)F)cc1 (racemic) ... -0.55
COc1cccc(OC)c1C1CCCC(=O)N1Cc1csc(-c2ccccc2)n1 (racemic) ... -1.35

Find log10 IC50 (Orexin/Hypocretin receptor type 1 (Homo sapiens)) for the entry COc1cc(OC)c(C2CCCCN2Cc2ccc(OC(F)(F)F)cc2)c(OC)c1 (racemic)
0.20

Field: log10 IC50 (Orexin/Hypocretin receptor type 1 (Homo sapiens)). Entry: COc1cccc(OC)c1C1COC(=O)N1Cc1ccc(OC(F)(F)F)cc1 (racemic)
0.42

Lab note: need log10 IC50 with Orexin/Hypocretin receptor type 1 (Homo sapiens) for entry COc1cccc(OC)c1C1CCCCC(=O)N1Cc1ccc(OC(F)(F)F)cc1 (racemic) , please look it up.
-0.58

Missing value: log10 IC50, Orexin/Hypocretin receptor type 1 (Homo sapiens), entry COc1cccc(OC)c1C1CCCC(=O)N1Cc1ccccc1 (racemic) . Fill in?
0.38

Identify the measured log10 IC50 of COc1cccc(OC)c1C1CC(C)C(=O)N1Cc1ccc2oc3ccccc3c2c1 (mixture of isomers) for Orexin/Hypocretin receptor type 1 (Homo sapiens).
-2.40

Data provenance is ChEMBL document CHEMBL3112474.
